IC50 values for the molecules below.
measuredTarget: FAP-expressing human WI-38 fibroblasts (Homo sapiens)
Construct: FAP-expressing human WI-38 fibroblasts (ECACC) were cultured in EMEM; host or cells: WI-38 human fibroblasts
Sequence (Q12884 whole entry): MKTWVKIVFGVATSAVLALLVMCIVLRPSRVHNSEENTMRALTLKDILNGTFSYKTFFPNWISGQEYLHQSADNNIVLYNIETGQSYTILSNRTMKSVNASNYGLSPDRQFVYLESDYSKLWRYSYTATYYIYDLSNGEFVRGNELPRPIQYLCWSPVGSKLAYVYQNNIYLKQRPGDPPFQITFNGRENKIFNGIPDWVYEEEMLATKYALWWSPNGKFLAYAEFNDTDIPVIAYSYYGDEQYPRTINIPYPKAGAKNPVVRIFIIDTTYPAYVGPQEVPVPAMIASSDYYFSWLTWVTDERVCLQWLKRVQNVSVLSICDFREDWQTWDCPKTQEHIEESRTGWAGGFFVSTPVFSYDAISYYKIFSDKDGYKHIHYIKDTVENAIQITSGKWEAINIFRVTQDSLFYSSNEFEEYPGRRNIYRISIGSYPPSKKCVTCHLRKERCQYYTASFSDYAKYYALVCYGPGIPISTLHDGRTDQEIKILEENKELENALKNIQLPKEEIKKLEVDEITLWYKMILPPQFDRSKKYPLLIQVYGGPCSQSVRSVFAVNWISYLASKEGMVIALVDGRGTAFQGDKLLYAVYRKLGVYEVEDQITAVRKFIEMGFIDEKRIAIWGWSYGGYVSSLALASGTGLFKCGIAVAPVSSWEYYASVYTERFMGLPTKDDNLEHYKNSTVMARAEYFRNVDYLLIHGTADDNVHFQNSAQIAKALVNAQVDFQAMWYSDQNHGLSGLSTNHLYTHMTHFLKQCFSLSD
assayMethodText: Competitive FACS binding assay
conditionParameters: pIC50 Category (FACS), competition with 3 nM Cy5-labeled compound, WI-38 fibroblasts, 4° C., 1 hour
Numbered stars: 1 amine (or outer) side, 2 acyl side, 3 side chain; on linkers, the order of the positions; unused ones are H or OH. Bridge positions count the residues as written; N and C are the ends. Square brackets hold non-standard residues; d marks the D form. Peptide text beside a SMILES is read from it. * marks the point of attachment. ξ: configuration not given here. X2 = O=C(O)CN1CCN(CC(=O)O)CCN(CC(=O)NCCCOCCOCCOCCCN*)CCN(CC(=O)O)CC1; DOTA = O=C(O)CN1CCN(CC(=O)O)CCN(CC(=O)*)CCN(CC(=O)O)CC1; Pyridine(3,5-bisCH2) = c1ncc(C[*:2])cc1C[*:1]; mXylylene = c1cc(C[*:1])cc(C[*:2])c1; αMeF = C[C@](N)(Cc1ccccc1)C(=O)O; Suc = O=C(CCC(=O)[*:2])[*:1]; 4Amb = NCc1ccc(C(=O)O)cc1; Nle = CCCC[C@H](N)C(=O)O; Hexanoyl = CCCCCC(=O)*; ξD = NC(CC(=O)O)C(=O)O
quantityKind: IC50

[
  {
    "molecule": "CSCC[C@H](NC(C)=O)C(=O)N[C@H]1CSCc2cccc(c2)CSC[C@@H](C(=O)N[C@H](CC(=O)O)C(=O)N[C@@H](Cc2c[nH]cn2)C(=O)N[C@@H](Cc2ccccc2)C(=O)N[C@@H](CCCNC(=N)N)C(=O)N[C@@H](CC(=O)O)C(N)=O)NC(=O)[C@H](Cc2ccccc2)NC(=O)[C@H](CCC(=O)O)NC(=O)[C@H]([C@@H](C)O)NC(=O)[C@@H]2CCCN2C(=O)[C@@H]2CCCN2C1=O [3BP-3183] (Ac-MCPPTEFC[dD]HFRD-NH2; linker 2-8 via mXylylene)",
    "result": "10 to 79.4 nM"
  },
  {
    "molecule": "CCCCCC(=O)N[C@H]1CSCc2cccc(c2)CSC[C@@H](C(=O)N[C@@H](CC(=O)O)C(N)=O)NC(=O)[C@H](Cc2ccccc2)NC(=O)[C@H](CCC(N)=O)NC(=O)[C@H]([C@@H](C)O)NC(=O)[C@@H]2CCCN2C(=O)[C@@H]2CCCN2C1=O [3BP-3476] (Hexanoyl-CPPTQFCD-NH2; linker 1-7 via mXylylene)",
    "result": "< 10 nM"
  },
  {
    "molecule": "CCCCCC(=O)N[C@H]1CSCc2cccc(c2)CSC[C@@H](C(=O)N[C@@H](CC(=O)O)C(=O)NCc2ccc(C(=O)N[C@@H](CCCNC(=N)N)C(N)=O)cc2)NC(=O)[C@H](Cc2ccccc2)NC(=O)[C@H](CCC(=O)O)NC(=O)[C@H]([C@@H](C)O)NC(=O)[C@@H]2CCCN2C(=O)[C@@H]2CCCN2C1=O [3BP-3301] (Hexanoyl-CPPTEFCD[4Amb]R-NH2; linker 1-7 via mXylylene)",
    "result": "< 10 nM"
  },
  {
    "molecule": "CSCC[C@H](NC(C)=O)C(=O)N[C@H]1CSCc2cccc(c2)CSC[C@@H](C(=O)N[C@@H](CC(=O)O)C(=O)N[C@@H](Cc2c[nH]cn2)C(=O)N[C@@H](Cc2ccccc2)C(=O)N[C@@H](CCCNC(=N)N)C(=O)N[C@@H](CC(=O)O)C(N)=O)NC(=O)[C@H](Cc2ccccc2)NC(=O)[C@H](CCC(=O)O)NC(=O)[C@H]([C@@H](C)O)NC(=O)[C@H]2CCCN2C(=O)[C@@H]2CCCN2C1=O [3BP-3177] (Ac-MCP[dP]TEFCDHFRD-NH2; linker 2-8 via mXylylene)",
    "result": "10 to 79.4 nM"
  },
  {
    "molecule": "C[C@@H](O)[C@@H]1NC(=O)[C@@H]2CCCN2C(=O)[C@@H]2CCCN2C(=O)[C@@H](NC(=O)CN2CCN(CC(=O)O)CCN(CC(=O)O)CCN(CC(=O)O)CC2)CSCc2cccc(c2)CSC[C@@H](C(=O)N[C@@H](CC(=O)O)C(=O)N[C@@H](Cc2c[nH]cn2)C(=O)N[C@@H](Cc2ccccc2)C(=O)N[C@@H](CCCNC(=N)N)C(=O)N[C@@H](CC(=O)O)C(N)=O)NC(=O)[C@H](Cc2ccccc2)NC(=O)[C@H](CCC(=O)O)NC1=O [3BP-3174] ({DOTA}-CPPTEFCDHFRD-NH2; linker 1-7 via mXylylene)",
    "result": "100 to 794 nM"
  },
  {
    "molecule": "CSCC[C@H](NC(C)=O)C(=O)N[C@H]1CSCc2cccc(c2)CSC[C@@H](C(=O)N[C@@H](CC(=O)O)C(=O)N[C@@H](Cc2c[nH]cn2)C(=O)N[C@@](C)(Cc2ccccc2)C(=O)N[C@@H](CCCNC(=N)N)C(=O)N[C@@H](CC(=O)O)C(N)=O)NC(=O)[C@H](Cc2ccccc2)NC(=O)[C@H](CCC(=O)O)NC(=O)[C@H]([C@@H](C)O)NC(=O)[C@@H]2CCCN2C(=O)[C@@H]2CCCN2C1=O [3BP-3203] (Ac-MCPPTEFCDH[αMeF]RD-NH2; linker 2-8 via mXylylene)",
    "result": "< 10 nM"
  },
  {
    "molecule": "CCCC[C@H](NC(=O)CCC(=O)NCCCOCCOCCOCCCNC(=O)CN1CCN(CC(=O)O)CCN(CC(=O)O)CCN(CC(=O)O)CC1)C(=O)N[C@H]1CSCc2cccc(c2)CSC[C@@H](C(=O)NC(CC(=O)O)C(N)=O)NC(=O)[C@H](Cc2ccccc2)NC(=O)[C@H](CCC(=O)O)NC(=O)[C@H]([C@@H](C)O)NC(=O)[C@@H]2CCCN2C(=O)[C@@H]2CCCN2C1=O (stereo partly drawn) [3BP-3320] ({X2-Suc}-[Nle]CPPTEFC[ξD]-NH2; linker 2-8 via mXylylene)",
    "result": "10 to 79.4 nM"
  },
  {
    "molecule": "CCCCCC(=O)N[C@H]1CSCc2cncc(c2)CSC[C@@H](C(=O)N[C@@H](CC(=O)O)C(N)=O)NC(=O)[C@H](Cc2ccccc2)NC(=O)[C@H](CCC(N)=O)NC(=O)[C@H]([C@@H](C)O)NC(=O)[C@@H]2CCCN2C(=O)[C@@H]2CCCN2C1=O [3BP-3519] (Hexanoyl-CPPTQFCD-NH2; linker 1-7 via Pyridine(3,5-bisCH2))",
    "result": "< 10 nM"
  },
  {
    "molecule": "CSCC[C@H](NC(=O)CN1CCN(CC(=O)O)CCN(CC(=O)O)CCN(CC(=O)O)CC1)C(=O)N[C@H]1CSCc2cccc(c2)CSC[C@@H](C(=O)N[C@@H](CC(=O)O)C(=O)N[C@@H](Cc2c[nH]cn2)C(=O)N[C@@H](Cc2ccccc2)C(=O)N[C@@H](CCCNC(=N)N)C(=O)N[C@@H](CC(=O)O)C(N)=O)NC(=O)[C@H](Cc2ccccc2)NC(=O)[C@H](CCC(=O)O)NC(=O)[C@H]([C@@H](C)O)NC(=O)[C@@H]2CCCN2C(=O)[C@@H]2CCCN2C1=O [3BP-3170] ({DOTA}-MCPPTEFCDHFRD-NH2; linker 2-8 via mXylylene)",
    "result": "100 to 794 nM"
  }
]

Origin of measurements: patent US20220315554A1
